Tested on: PC-3
Test: Anticancer activity against human PC3 cells
Type: functional, cell-based
READOUT: IC50 (µM)
Give the value, in units of µM, as a plain number.

Notebook entry, PC-3 assay: IC50 of "N#Cc1c(/N=C/c2ccc([N+](=O)[O-])cc2)c(C(=O)Nc2cc(Cl)cc(Cl)c2)n2c1CCC2" = ? 8.54

* * *

Test system: MCF7
Experiment: Growth inhibition of human MCF7 cells by MTT assay
Type: functional, cell-based
READOUT: pIC50
// returns pIC50 (minus log10 of molar concentration), number only

Cc1ccc(NC(=O)c2c(N=Cc3ccc4ccccc4c3)c(C#N)c3n2CCC3)cc1: 5.11
Cc1ccc(NC(=O)c2c(N=Cc3cccnc3)c(C#N)c3n2CCC3)cc1: 4.74
Cc1ccc(NC(=O)c2c(N=Cc3ccco3)c(C#N)c3n2CCC3)cc1: 4.79

Kindly consider the entry below.
Given the molecule "COc1cccc2c1C(=O)c1c(O)c3c(c(O)c1C2=O)C[C@@](O)(C(=O)CO)C[C@@H]3O[C@H]1C[C@H](N)[C@H](O)[C@H](C)O1" , what is its reported pIC50? 5.64
